experiment: Solubility in aqueous buffer at pH 5 (HPLC/UV); format: physicochemical; details: acetic acid/KOH buffer, pH 5, aqueous buffer, thermodynamic from solid, acetic acid/KOH buffer pH 5, stirred 24 h at room temperature
reportedProperty: solubility at 24 h (µg/mL)

Recorded results for 4 compounds are shown here.
INSERT INTO assay_data (compound, reportedproperty, readingunit, measuredresult) VALUES
  ('Oc1ccc(Cl)c(-c2ccc3nc(Nc4ccc(OCCN5CCCCCC5)cc4)ncc3c2)c1 [compound 16]', 'solubility at 24 h', 'µg/mL', 500),
  ('Cc1cccc(C)c1-c1ccc2nc(Nc3ccc(OCC(=O)N4CC[C@@H](N(C)C)C4)cc3)ncc2c1 [compound 14]', 'solubility at 24 h', 'µg/mL', 140),
  ('O=C1N(CCN2CCCC2)CCN1c1ccc(Nc2ncc3cc(-c4cc(O)ccc4Cl)ccc3n2)cc1 [12 Chlorhydrate]', 'solubility at 24 h', 'µg/mL', 4500),
  ('Cc1cc(-c2cc(O)ccc2Cl)cc2cnc(Nc3ccc(OCCN4CCCC4)cc3)nc12.Cl [Compound 18]', 'solubility at 24 h', 'µg/mL', 6700);

a = Cc1cccc(C)c1-c1ccc2nc(Nc3ccc(N4CCN(CCN5CCCC5)C4=O)cc3)ncc2c1 [9 Chlorhydrate]
b = Cc1cccc(C)c1-c1ccc2nc(Nc3ccc(N4CCNCC4)cc3)ncc2c1 [compound 17]
c = Oc1ccc(Cl)c(-c2ccc3nc(Nc4ccc(OCCN5CCCC5)cc4)ncc3c2)c1 [7 base form]
d = Cc1cccc(C)c1-c1ccc2nc(Nc3ccc(OCCN4CCCC4)cc3)ncc2c1 [6 Chlorhydrate]
e = Cl.Oc1ccc(Cl)c(-c2ccc3nc(Nc4ccc(OCCN5CCCC5)cc4)ncc3c2)c1 [compound 7]
Query string: Ascending by solubility at 24 h, please. Provide your answer as the labels ordered per the instruction.
Result string: c, d, e, a, b
